The reported numbers originate from PubChem BioAssay (Tox21).

# assay text: qHTS assay for identifying genotoxic compounds that show differential cytotoxicity against isogenic chicken DT40 cell lines with known DNA damage response pathways - Rad54/Ku70 mutant cell line (AID 743015); further: nearly all actives have a fitted effect of over 60% in size
# run parameters: DT40 Rad54/Ku70 mutant viability, CellTiter-Glo, 40 h; series mostly up to 66.8 µM
Records with an inconclusive call do not appear. Activity calls are given as the source filed them. The call rests on the fitted dose curve; in most records, active means well fitted cell-killing curve with a large enough effect in the repeat runs; inconclusive means weak or mixed curves; inactive means no such curve, though single readings can be large or run the other way.
Return exactly one item of active, inactive

Test call, this compound: `O=C(N/N=C/c1ccccc1O)c1ccncc1`
active

Recorded test call requested for `CC(=O)SC[C@@H](Cc1ccccc1)C(=O)NCC(=O)OCc1ccccc1`
inactive

Called result for `CCCCCCCCn1sc(Cl)c(Cl)c1=O`
active

State the result this test recorded for `COc1cc(-c2ccc(N=C=O)c(OC)c2)ccc1N=C=O` .
inactive

Which result was noted for this compound in the test: `OC1(c2ccc(Cl)c(C(F)(F)F)c2)CCN(CCCC(c2ccc(F)cc2)c2ccc(F)cc2)CC1`
active

Outcome logged for `O=S1(=O)CC(Cl)(Cl)C(Cl)(Cl)C1` in this assay:
active

Answer briefly: the call reported for `C/C=C1/C(=O)C[C@H]2[C@@H]3CCC4=CC(=O)CC[C@]4(C)[C@H]3CC[C@]12C` in this assay.
active

Which outcome was entered for the compound CCOc1nc2cccc(C(=O)OC(C)OC(=O)OC3CCCCC3)c2n1Cc1ccc(-c2ccccc2-c2nn[nH]n2)cc1 (stereo not drawn) in this test?
active

# fetch the recorded call for `COc1cc(-c2nc(NC(=O)c3cc4cc(C)cc(C)c4n3CC(=O)O)sc2CCC2CCCCC2)c(OC)cc1Cl` here
active

What call does the record list for `OCCCCCCCCCCCCBr` ?
active

Query: recorded result category for `CC1=C(/C=C/C(C)=C/C=C/C(C)=C/C=O)C(C)(C)CCC1` in this test
active

Given `NNc1nc(-c2ccc(N)cc2)cs1` , state the outcome it received in this test.
active

Short answer needed: outcome of this test for `O=C1CCCCCN1SSN1CCCCCC1=O` ?
active

// return assay outcome for `CCCCCCCC[P+](CCCCCCCC)(CCCCCCCC)CCCCCCCC`
active

What did the test return for `O=C(OCC(COC(=O)c1ccccc1)(COC(=O)c1ccccc1)COC(=O)c1ccccc1)c1ccccc1` ?
inactive

State the result this test recorded for `CCOC(=O)/C=C(C)/C=C/C=C(C)/C=C/c1c(C)cc(OC)c(C)c1C` .
active

Please indicate how the test categorized `N/C(=N\N=C\c1ccc(Cl)cc1)N/N=C/c1ccc(Cl)cc1` .
inactive

Identify the outcome logged in this assay for the compound shown: `C[C@H](CCC(=O)O)[C@H]1CC[C@H]2[C@@H]3CC[C@@H]4C[C@H](O)CC[C@]4(C)[C@H]3CC[C@]12C`
inactive

* * *

# assay text: qHTS assay to identify small molecule antagonists of the constitutive androstane receptor (CAR) signaling pathway - cell viability counter screen (AID 1224837); further: nearly all actives have a fitted effect of over 45% in size; further: potency means the concentration at half of the fitted maximal effect
# run parameters: HepG2-CYP2B6-hCAR viability, CellTiter-Fluor, 23 h, co-treated with 50 nM CITCO; series mostly up to 92.4 µM
Inconclusive results are not listed. Calls of active or inactive are those of the source. The call rests on the fitted dose curve; in most records, active means well fitted cell-killing curve with a large enough effect in the repeat runs; inconclusive means weak or mixed curves, or effect the other way; inactive means flat fitted curve, though single readings scatter.
assay endpoint: Potency

Solved cases below.
• CCCC/C=C/CCCCO = inactive
• CCCCN(CCCC)c1ccc(C(=O)c2ccccc2C(=O)O)c(O)c1 = inactive
• CCN(C(=O)c1cc(C)cc(OC[C@H](C)Nc2ccncc2)c1)C(C)C = inactive
• COc1ccc(C(=O)/C(Br)=C\C(=O)O)cc1 = inactive
• NNc1nc(-c2ccccc2)cs1 = inactive
• Oc1cccc2cc3cccc(O)c3c(O)c12 = inactive
• CCCCCCCC(=O)[O-].CCCCCCCC(=O)[O-].[Zn+2] = inactive
• Cn1cc(C(=O)[C@@H]2CCc3nc[nH]c3C2)c2ccccc21 = inactive
• Nc1cc(C(F)(F)F)ccc1S = inactive
• NC(=O)NS(=O)(=O)c1ccc(N)cc1 = inactive

Please fill in: Potency reported for CC(C)OC(=O)c1cc2c(OCC(O)CNC(C)(C)C)cccc2[nH]1 (centres undefined) = inactive

The recorded Potency for `COC(=O)c1cc(Cl)ccc1OC` is inactive

compound `Cc1ccc(-n2nc(C(C)(C)C)cc2NC(=O)Nc2ccc(OCCN3CCOCC3)c3ccccc23)cc1` , Potency observed: inactive

Per the records, this compound ( `CCCCCCCCCCCC[N+](C)(C)CCCCCCCCCCCC` ) has Potency equal to 24.3 µM (active)

The reported Potency of the compound `O=C(Nc1cccc([N+](=O)[O-])c1)c1cc2ccccc2cc1O` was 9.69 µM (active)

For reference, reported Potency for `CCCCCCCCCCC=O` stands at inactive

Sure, the documented Potency for `CCCCCCCCCCCCCCCCCC[N+](C)(C)Cc1ccccc1` is 55 µM (active)

The compound Cc1c(C)c2c(c(C)c1O)CCC(C)(COc1ccc(CC3SC(=O)NC3=O)cc1)O2 (centres undefined) showed Potency equal to inactive

* * *

# assay text: qHTS assay to identify small molecule agonists of the RXR signaling pathway - cell viability counter screen (AID 1159529); further: nearly all actives have a fitted effect of over 50% in size
# run parameters: RXR-alpha-bla HEK293T viability, CellTiter-Glo, 16 h; series mostly up to 76.8 µM
Inconclusive results are not listed. Calls of active or inactive are those of the source. The call rests on the fitted dose curve; in most records, active means well fitted cell-killing curve with a large enough effect in the repeat runs; inconclusive means weak or mixed curves, or effect the other way; inactive means no such curve, though single readings can be large or run the other way.
Return exactly one item of 1 = active, 0 = inactive

Use these answered entries as a reference point.
• CCCC1O[C@@H]2C[C@H]3[C@@H]4CCC5=CC(=O)C=C[C@]5(C)[C@H]4[C@@H](O)C[C@]3(C)[C@]2(C(=O)CO)O1 (some centres not stated) = 0
• Oc1ccc(Cl)cc1Sc1cc(Cl)ccc1O = 1
• Cc1[nH]nc2c1N=C(c1ccccc1Cl)c1cc([N+](=O)[O-])ccc1N2 = 1

Check the results log: what was the call for `C=CC(=O)OCC(CO)(COCC(COC(=O)C=C)(COC(=O)C=C)COC(=O)C=C)COC(=O)C=C` ?
1

Assay outcome for CC(=O)OCC(C)OC(C)=O (configuration not stated) : what was it?
0

Each compound tested received a call. Report the one for `C[C@]12CCC(=O)C=C1CC[C@@H]1[C@@H]2[C@@H](O)C[C@@]2(C)[C@H]1CC[C@]2(O)C(=O)COC(=O)CCC(=O)O` .
0

Hi, do you know how `CCCCCCCCCCCCCCCCCC[N+](C)(C)C` came out in this test?
1

Call for entry `O=C(c1ccc(O)cc1O)c1ccc(O)cc1O` :
0

* * *

# assay text: qHTS assay to identify small molecule antagonists of the farnesoid-X-receptor (FXR) signaling pathway - cell viability counter screen (AID 743221); further: nearly all actives have a fitted effect of over 50% in size
# run parameters: FXR-bla HEK293T viability, CellTiter-Glo luminescence, 16 h; series mostly up to 62.6 µM
Records with an inconclusive call do not appear. Calls of active or inactive are those of the source. Calls come from the whole dose curve; as a rule, active = well fitted cell-killing curve with a large enough effect in the repeat runs (not every such curve was filed as active); inconclusive = weak or mixed curves, or effect the other way; inactive = no such curve, though single readings can be large or run the other way.
Permitted responses: active, inactive

- CC[C@H](c1ccc(O)cc1)[C@@H](CC)c1ccc(O)cc1: inactive
- Cc1oc(-c2ccccc2)nc1CCC(=O)c1ccc(CC2SC(=O)NC2=O)cc1 (stereo unspecified): inactive
- Cc1ccc(O)c(C(C)(C)C)c1: active
- CCCCCCCCCCCCc1ccc(O)cc1: active
- N=C1N=C(N)c2cc3ccccc3cc21: active

Moving on to another compound below.
Could you kindly confirm the outcome this assay logged for CCCCC(CC)CN=C(N)NC(N)=NCCCCCCN=C(N)NC(N)=NCC(CC)CCCC (stereo unspecified) ?
active

* * *

# assay text: A CellTox Green Cytotoxicity Assay to monitor cytotoxicity in HEK293 cells - 40 hour (AID 1224871); further: nearly all actives have a fitted effect of over 45% in size
# run parameters: CellTox Green fluorescence; series mostly up to 76.8 µM
Inconclusive results are not listed. Calls of active or inactive are those of the source. Calls come from the whole dose curve; as a rule, active = well fitted activation curve with a large enough effect in the repeat runs; inconclusive = weak or mixed curves; inactive = flat fitted curve, though single readings scatter.
Would you mind answering with one of these outcomes? 1 (active), 0 (inactive)

Example cases with answers are listed next.
* CCCCN(CCCC)C(=O)N(CCCC)CCCC | 0
* CCOc1ccc2nc3cc(N)ccc3c(N)c2c1 | 1
* CCCC1O[C@@H]2C[C@H]3[C@@H]4CCC5=CC(=O)C=C[C@]5(C)[C@H]4[C@@H](O)C[C@]3(C)[C@]2(C(=O)CO)O1 (stereo not given in full) | 0
* CC(=O)SC[C@@H](Cc1ccccc1)C(=O)NCC(=O)OCc1ccccc1 | 0

Consider now this further compound.
Tell me the assay call for CCN(CC)CCCC(C)Nc1c2ccc(Cl)cc2nc2ccc(OC)cc12 (stereo not given) please.
1

* * *

# assay text: qHTS assay for identifying genotoxic compounds that show differential cytotoxicity against isogenic chicken DT40 cell lines with known DNA damage response pathways - Rev3 mutant cell line (AID 743014); further: nearly all actives have a fitted effect of over 55% in size
# run parameters: chicken DT40 Rev3-/- viability, CellTiter-Glo, 40 h; series mostly up to 68.4 µM
Results filed as inconclusive are left out. Calls of active or inactive are those of the source. Calls follow the shape of the dose curve; as a rule, active = well fitted cell-killing curve with a large enough effect in the repeat runs; inconclusive = weak or mixed curves, or effect the other way; inactive = no such curve, though single readings can be large or run the other way.
Answer with one of the outcomes TRUE (active), FALSE (inactive)

- C[C@@H](NCCCc1cccc(C(F)(F)F)c1)c1cccc2ccccc12: TRUE
- CCCCCCCCOc1ccccc1C(=O)Nc1ccc(C(=O)OCC[N+](C)(CC)CC)cc1: TRUE
- CCCC/C=C/CCCCO: FALSE
- c1cc(C(c2ccc(OCC3CO3)cc2)c2ccc(OCC3CO3)cc2)ccc1OCC1CO1 (centres undefined): TRUE
- Cc1cc(O)c(C(C)(C)C)cc1Sc1cc(C(C)(C)C)c(O)cc1C: TRUE
- CC1(C)CCC(C)(C)c2cc(C(=O)Nc3ccc(C(=O)O)cc3)ccc21: TRUE
- CNc1ccc(O)cc1: TRUE
- CC1=NC(C)OC1C (centres undefined): FALSE

Query: recorded result category for `C[C@]12CCC(=O)C=C1CC[C@@H]1[C@@H]2[C@@H](O)C[C@@]2(C)[C@H]1CC[C@]2(O)C(=O)COC(=O)CCC(=O)O` in this test
TRUE

Which outcome was assigned to `O=C(c1ccc(F)cc1)C1CCN(CCn2c(=O)[nH]c3ccccc3c2=O)CC1` in this test?
FALSE

Check the results log: what was the call for `Cc1cc2c(cc1C(F)(F)F)N(C(=O)Nc1ccc(Oc3cccnc3C)nc1)CC2` ?
TRUE

Hi team, can someone confirm the assay call for `CC(C)CCCCCCCCCCCCCCC(=O)O` ?
FALSE

Record request — test call for `CCOC(=O)c1nc(C(Cl)(Cl)Cl)n(-c2ccc(Cl)cc2Cl)n1`
TRUE

Which result was noted for this compound in the test: `O=C(Oc1ccccc1)c1ccccc1C(=O)Oc1ccccc1`
TRUE

Lab log entry: `O=C1C=CC(=O)N1` — outcome as called in the assay?
TRUE

Which outcome did this test record for the compound `Oc1cccc(-c2c3nc(c(-c4cccc(O)c4)c4ccc([nH]4)c(-c4cccc(O)c4)c4nc(c(-c5cccc(O)c5)c5ccc2[nH]5)CC4)C=C3)c1` ?
TRUE

# outcome recorded in this test, key = `COc1c(C)c2c(c(O)c1C/C=C(\C)CCC(=O)O)C(=O)OC2`
TRUE
